Data provenance is paper PMC3578785.

Reported fraction unbound at 1 µM values for the following molecules.
- Test method notes: in vitro
- Assay context: plasma, pH 7.4

Below: 3 molecules and their reported fraction unbound at 1 µM.
{"Chem smiles": "COc1ccc(-c2cc(CN3CCOCC3)c(C)n2-c2ccc(C)cc2)cc1", "Property measured": "fraction unbound at 1 µM", "Reported measurement": 0.008}
{"Chem smiles": "CCCc1ccc(-c2cc(CN3CCOCC3)c(C)n2-c2ccc(Cl)cc2)cc1", "Property measured": "fraction unbound at 1 µM", "Reported measurement": "< 0.001"}
{"Chem smiles": "CSc1ccc(-c2cc(CN3CCSCC3)c(C)n2-c2ccc(F)cc2)cc1", "Property measured": "fraction unbound at 1 µM", "Reported measurement": 0.007}

Return reported fraction unbound at 1 µM; argument: `COc1ccc(-c2cc(CN3CCOCC3)c(C)n2-c2ccc(F)cc2)cc1` 0.017

Same for `CCCc1ccc(-c2cc(CN3CCOCC3)c(C)n2-c2ccc(OC)cc2)cc1` < 0.001

Input `Cc1ccc(-c2cc(CN3CCOCC3)c(C)n2-c2ccc(F)cc2)cc1` 0.005

Also, `Cc1c(CN2CCOCC2)cc(-c2ccc(Cl)cc2)n1-c1ccc(C(C)C)cc1` please. < 0.001

`Cc1ccc(-c2cc(CN3CCSCC3)c(C)n2-c2ccc(F)cc2)cc1` , same question. < 0.001

Check `COc1ccc(-n2c(-c3ccc(C)cc3)cc(CN3CCOCC3)c2C)cc1` too. 0.007

What about this molecule? `COc1ccc(-c2cc(CN3CCSCC3)c(C)n2-c2ccc(F)cc2)cc1` 0.004

Follow-up entry: `Cc1c(CN2CCN(C)CC2)cc(-c2ccc(Cl)cc2)n1-c1ccc(Cl)cc1` 0.002

* * *

- Test method notes: in vitro
- Assay type: in vitro ADME, human
- Assay context: human, 0.5 µM, pH 7.4
Assign YES to entries whose Cli human meets or exceeds 0.6 mL/min/g; assign NO to the rest.

Use these answered entries as a reference point.
{"Chem smiles": "Cc1c(CN2CCOCC2)cc(-c2ccc(C(C)C)cc2)n1-c1ccc(Cl)cc1", "Discrete label": "YES"}
{"Chem smiles": "Cc1c(CN2CCOCC2)cc(-c2ccc(Cl)cc2)n1-c1ccc(C(C)C)cc1", "Discrete label": "NO"}
{"Chem smiles": "CCc1ccc(-c2cc(CN3CCOCC3)c(C)n2-c2ccc(F)cc2)cc1", "Discrete label": "YES"}
{"Chem smiles": "COc1ccc(-n2c(-c3ccc(C(C)C)cc3)cc(CN3CCOCC3)c2C)cc1", "Discrete label": "YES"}
{"Chem smiles": "CCCc1ccc(-c2cc(CN3CCOCC3)c(C)n2-c2ccc(Cl)cc2)cc1", "Discrete label": "NO"}
{"Chem smiles": "Cc1ccc(-n2c(-c3ccc(Cl)cc3)cc(CN3CCOCC3)c2C)cc1", "Discrete label": "NO"}
{"Chem smiles": "CCc1ccc(-n2c(-c3ccc(OC)cc3)cc(CN3CCOCC3)c2C)cc1", "Discrete label": "NO"}
{"Chem smiles": "Cc1ccc(-c2cc(CN3CCOCC3)c(C)n2-c2ccc(F)cc2)cc1", "Discrete label": "NO"}
{"Chem smiles": "CCCc1ccc(-n2c(-c3ccc(Cl)cc3)cc(CN3CCOCC3)c2C)cc1", "Discrete label": "NO"}

Hello, I need to know if `COc1ccc(-c2cc(CN3CCOCC3)c(C)n2-c2ccc(C)cc2)cc1` has measured Cli human not below 0.6 mL/min/g. Thanks! YES
